test system: NB-4; experiment: Cytotoxicity against Homo sapiens (human) NB4 cells assessed as growth inhibition after 48 hr by MTT assay; format: functional, cell-based; conditions: NB-4, 48 h
Reported endpoint: IC50

The following compounds have reported results that may help.
Input smiles	IC50
Cc1cc2c(cc1C(=O)c1ccc(C(=O)OCCOC(=O)c3ccc(C(=O)Nc4ccc5c(c4)C(C)(C)CCC5(C)C)cc3)cc1)C(C)(C)CCC2(C)C	67 µM
C=C(c1ccc(C(=O)NCCOC(=O)c2ccc(C(=O)Nc3ccc4c(c3)C(C)(C)CCC4(C)C)cc2)cc1)c1cc2c(cc1C)C(C)(C)CCC2(C)C	> 1000 µM
Cc1cc2c(cc1C(=O)c1ccc(C(=O)OCCCCOC(=O)c3ccc(C(=O)Nc4ccc5c(c4)C(C)(C)CCC5(C)C)cc3)cc1)C(C)(C)CCC2(C)C	147 µM

Shifting focus to the compound that follows.
[Q] Please indicate IC50 recorded for "CCCC(=O)OCCCOC(=O)c1ccc(C(=O)Nc2ccc3c(c2)C(C)(C)CCC3(C)C)cc1"
[A] 5.75 µM

###

test system: NB-4; experiment: Cytotoxicity against Homo sapiens (human) NB4 cells assessed as growth inhibition after 48 hr by MTT assay; format: functional, cell-based; settings: NB-4, 48 h
Friendly reminder: IC50 below 70 µM is y, at or above is n.

Input smiles	System under test	Cat
CCCC(=O)OCCCCOC(=O)c1ccc(C(=O)Nc2ccc3c(c2)C(C)(C)CCC3(C)C)cc1	NB-4	y
C=C(c1ccc(C(=O)NCCCCCCNC(=O)c2ccc(C(=O)Nc3ccc4c(c3)C(C)(C)CCC4(C)C)cc2)cc1)c1cc2c(cc1C)C(C)(C)CCC2(C)C	NB-4	n
CCCC(=O)OCCOC(=O)c1ccc(C(=O)Nc2ccc3c(c2)C(C)(C)CCC3(C)C)cc1	NB-4	y
CCCC(CCC)C(=O)OCCOC(=O)c1ccc(C(=O)Nc2ccc3c(c2)C(C)(C)CCC3(C)C)cc1	NB-4	n
CCCC(CCC)C(=O)OCCCCOC(=O)c1ccc(C(=O)Nc2ccc3c(c2)C(C)(C)CCC3(C)C)cc1	NB-4	n

[Q] Does the reported IC50 of "CCCC(=O)NCCNC(=O)c1ccc(C(=O)Nc2ccc3c(c2)C(C)(C)CCC3(C)C)cc1" stay below 70 µM?
[A] y

[Q] Does the reported IC50 of "C=C(c1ccc(C(=O)NCCNC(=O)c2ccc(C(=O)Nc3ccc4c(c3)C(C)(C)CCC4(C)C)cc2)cc1)c1cc2c(cc1C)C(C)(C)CCC2(C)C" stay below 70 µM?
[A] n

[Q] Does the reported IC50 of "C=C(c1ccc(C(=O)OCCCCOC(=O)c2ccc(C(=O)Nc3ccc4c(c3)C(C)(C)CCC4(C)C)cc2)cc1)c1cc2c(cc1C)C(C)(C)CCC2(C)C" stay below 70 µM?
[A] n

[Q] Does the reported IC50 of "C=C(c1ccc(C(=O)OCCCOC(=O)c2ccc(C(=O)Nc3ccc4c(c3)C(C)(C)CCC4(C)C)cc2)cc1)c1cc2c(cc1C)C(C)(C)CCC2(C)C" stay below 70 µM?
[A] n

[Q] Does the reported IC50 of "Cc1cc2c(cc1C(=O)c1ccc(C(=O)NCCOC(=O)c3ccc(C(=O)Nc4ccc5c(c4)C(C)(C)CCC5(C)C)cc3)cc1)C(C)(C)CCC2(C)C" stay below 70 µM?
[A] n

[Q] Does the reported IC50 of "CCCC(CCC)C(=O)OCCNC(=O)c1ccc(C(=O)Nc2ccc3c(c2)C(C)(C)CCC3(C)C)cc1" stay below 70 µM?
[A] n

[Q] Does the reported IC50 of "CCCC(=O)OCCNC(=O)c1ccc(C(=O)Nc2ccc3c(c2)C(C)(C)CCC3(C)C)cc1" stay below 70 µM?
[A] n

[Q] Does the reported IC50 of "Cc1cc2c(cc1C(=O)c1ccc(C(=O)OCCCOC(=O)c3ccc(C(=O)Nc4ccc5c(c4)C(C)(C)CCC5(C)C)cc3)cc1)C(C)(C)CCC2(C)C" stay below 70 µM?
[A] n

[Q] Does the reported IC50 of "C=C(c1ccc(C(=O)OCCOC(=O)c2ccc(C(=O)Nc3ccc4c(c3)C(C)(C)CCC4(C)C)cc2)cc1)c1cc2c(cc1C)C(C)(C)CCC2(C)C" stay below 70 µM?
[A] n

[Q] Does the reported IC50 of "CCCC(CCC)C(=O)OCCCOC(=O)c1ccc(C(=O)Nc2ccc3c(c2)C(C)(C)CCC3(C)C)cc1" stay below 70 µM?
[A] n
